Measured values drawn from PubChem BioAssay (NCI) for this set.

# Tested on: RXF 393 renal
# experiment: NCI tumour cell line growth inhibition, 48 h
Binning of TGI into classes: A: < 8 µM; B: ≥ 8 µM and < 70 µM; C: ≥ 70 µM

Categorize the following entry: `O=c1c2c3c(sc2n2c(-c4cc(-c5ccccc5)no4)nnc2n1Cc1ccccc1)CCCC3` B

Categorize the following entry: `CC(=O)Nc1ccc(/C=C/C(=O)c2ccccc2)cc1` B

Categorize the following entry: `N#Cc1n[nH]n(C2CCCCC2)c1=O` C

Categorize the following entry: `COc1ccc2c(c1)CCN=C2Cc1cc(OC)c(OC)cc1CCCl` C

Categorize the following entry: `NC(=O)C#CC#CC#CCO` A

Categorize the following entry: COC(=O)CC1C(COC(C)=O)OC(n2cc(C)c(=O)[nH]c2=O)C1OC(C)=O (centres undefined) C

Categorize the following entry: `Cn1c2c(c3ccccc31)CCN(CCN1CCN(c3ccccc3)CC1)C2=O` C

Categorize the following entry: `CCOc1ccc(NC(=O)C2=C(C)NC(C)=C(C(=O)Nc3ccc(OCC)cc3)C2c2ccc(O)c(OC)c2)cc1` C

Categorize the following entry: O=C1C2C(C(=O)[N]1[Hg][c]1cccs1)C1(Cl)C(Cl)=C(Cl)C2(Cl)C1(Cl)Cl (centres undefined) A

Categorize the following entry: CC1OC(n2ccc(=O)[nH]c2=O)C=C(OC(=O)c2ccccc2)C1=O (centres undefined) C

Categorize the following entry: `CCCN1CC=C(c2cc(C(=O)OCC)[nH]c2-c2cc(C)no2)C1=O` C

Categorize the following entry: O=C1c2cccnc2C(=O)C2C3C=CC(C3)C12 (centres undefined) B

Categorize the following entry: `Nc1ncnc2c1ncn2Cc1ccc(C23CC4CC(CC(C4)C2)C3)c(OCc2cc(F)c(F)cc2F)c1` B

Categorize the following entry: `O=C(Nc1ccccc1)c1nn(-c2cc(S(=O)(=O)O)c([N+](=O)[O-])cc2Cl)[n+](-c2cc(S(=O)(=O)[O-])c([N+](=O)[O-])cc2Cl)n1` C

Categorize the following entry: COC(=O)c1cc2c3c(cc(N(C)C)c2[nH]1)N(C(=O)c1cc2cc(OC)c(OC)c(OC)c2[nH]1)CC3CCl (centres undefined) A

###

# Tested on: U251 CNS
Hi! Could you answer with just one of these? t = active, f = inactive

Assay result, entry `O=c1c2c3c(sc2n2c(-c4cc(-c5ccccc5)no4)nnc2n1Cc1ccccc1)CCCC3` — outcome? f

Assay result, entry `CCC[CH2][Sn]([CH2]CCC)([O]C(=O)c1cc(F)ccc1F)[O][Sn]([CH2]CCC)([CH2]CCC)[O]C(=O)c1cc(F)ccc1F` — outcome? t

Assay result, entry `Oc1ccc(CN2CCC(N3CCOCC3)CC2)c2cccnc12` — outcome? f

Assay result, entry `Cc1ccc(NC(=O)Cc2ccc(/C=C/C(=O)c3ncc[nH]3)cc2)cc1` — outcome? f

Assay result, entry `Clc1ccc(/C=C/c2cc(N3CCOCC3)c3cc(Cl)c(Cl)cc3n2)cc1` — outcome? f

Assay result, entry `N#Cc1ncc(-c2ccc(C(F)(F)F)cc2)c(NCc2cc(C(F)(F)F)cc(C(F)(F)F)c2)n1` — outcome? f

Assay result, entry CC(=O)CCc1ccc(OC2OC(COC(=O)c3cc(O)c(O)c(O)c3)C(O)C(O)C2OC(=O)/C=C/c2ccccc2)cc1 (centres undefined) — outcome? f

Assay result, entry `CC(=O)Nc1ccc(/C=C/C(=O)c2ccccc2)cc1` — outcome? f

Assay result, entry `CCCCCc1nc2c(c3c1CCCC3)CCCC2` — outcome? f

###

# Test system: BT-549 breast
# experiment: NCI tumour cell line growth inhibition, 48 h
I'd appreciate it if you could supply GI50 values for the items below.

Read the entry `COc1cc2c3c(n(CCCN(CCN)CCCn4c5c(c6cc(OC)c(OC)cc6c4=O)C(=O)c4cc6c(cc4-5)OCO6)c(=O)c2cc1OC)-c1cc2c(cc1C3=O)OCO2` and write its reported GI50. 5.08 µM

Read the entry `Cc1ccc(NC(=O)Cc2ccc(/C=C/C(=O)c3ncc[nH]3)cc2)cc1` and write its reported GI50. 6.42 µM

Read the entry `CC(C)(O)C#Cc1ccc(/C=C/C(=O)c2ccccc2)s1` and write its reported GI50. 16.2 µM

Read the entry `COc1cc(-n2cc(-c3ccc(F)cc3)nc2SCc2ccccc2)cc(OC)c1OC` and write its reported GI50. > 100 µM

Read the entry `CN(c1cc2ncc(=O)[nH]c2cc1NC(N)=NCc1ccc(Cl)cc1)C1CCCCC1` and write its reported GI50. 7.4 µM

Read the entry `Cn1cc(C2=C(c3cccc(N)c3)C(=O)NC2=O)c2ccccc21` and write its reported GI50. > 19.3 µM

Read the entry `N=C(N)c1ccc(OCCOCCOc2ccc(C(=N)N)cc2)cc1` and write its reported GI50. 53.5 µM

###

I'd appreciate it if you could supply GI50 values for the items below.
# Tested on: OVCAR-5 ovarian
# experiment: NCI tumour cell line growth inhibition, 48 h

Determine reported GI50 for `Clc1ccc(/C=C/c2cc(N3CCOCC3)c3cc(Cl)c(Cl)cc3n2)cc1` ; test system: OVCAR-5 ovarian. > 100 µM

Determine reported GI50 for `N/C(=C\C(=O)n1nc(-c2ccccc2)cc1N)c1ccccc1` ; test system: OVCAR-5 ovarian. 19.2 µM

Determine reported GI50 for `COc1cc(-c2nc3sccn3c2-c2ccnc(NCCNS(=O)(=O)c3ccc(Cl)cc3)n2)ccc1F` ; test system: OVCAR-5 ovarian. 55 µM

Determine reported GI50 for `CCC[CH2][Sn]([CH2]CCC)([O]C(=O)c1cc(F)ccc1F)[O][Sn]([CH2]CCC)([CH2]CCC)[O]C(=O)c1cc(F)ccc1F` ; test system: OVCAR-5 ovarian. 1.76 µM

Determine reported GI50 for `COc1ccc(-n2cc(-c3cc(OC)c(OC)c(OC)c3)nc2SCc2ccccc2)cc1` ; test system: OVCAR-5 ovarian. > 100 µM

Determine reported GI50 for `Cn1cc(C2=C(c3cccc(N)c3)C(=O)NC2=O)c2ccccc21` ; test system: OVCAR-5 ovarian. > 25 µM

Determine reported GI50 for `Nc1ncnc2c1ncn2Cc1ccc(C23CC4CC(CC(C4)C2)C3)c(OCc2cc(F)c(F)cc2F)c1` ; test system: OVCAR-5 ovarian. 68.6 µM

Determine reported GI50 for `Oc1ccc(CN2CCC(N3CCOCC3)CC2)c2cccnc12` ; test system: OVCAR-5 ovarian. 86.9 µM

Determine reported GI50 for CC(=O)CCc1ccc(OC2OC(COC(=O)c3cc(O)c(O)c(O)c3)C(O)C(O)C2OC(=O)/C=C/c2ccccc2)cc1 (centres undefined) ; test system: OVCAR-5 ovarian. 15.6 µM

###

# Test system: HOP-92 NSCLC
# experiment: NCI tumour cell line growth inhibition, 48 h
I'd appreciate it if you could supply GI50 values for the items below.

Read the entry `CCOc1ccccc1NC(=O)c1cc2ccccc2cc1O` and write its reported GI50. 1.72 µM

Read the entry `O=S(=O)(Cc1ccc(Cl)cc1Cl)c1ccc(Cl)cc1` and write its reported GI50. 20.8 µM

Read the entry `N#Cc1cccc(OCc2nc(N)nc(N)c2-c2ccc(Cl)c(Cl)c2)c1` and write its reported GI50. 1.82 µM

Read the entry `COc1cc2c3c(n(CCCN(CCN)CCCn4c5c(c6cc(OC)c(OC)cc6c4=O)C(=O)c4cc6c(cc4-5)OCO6)c(=O)c2cc1OC)-c1cc2c(cc1C3=O)OCO2` and write its reported GI50. 1.29 µM

Read the entry O=C1C2C(C(=O)[N]1[Hg][c]1cccs1)C1(Cl)C(Cl)=C(Cl)C2(Cl)C1(Cl)Cl (stereo not given) and write its reported GI50. 1.58 µM

Read the entry COc1ccc(C2CC(c3cccc(Nc4ccncc4)c3)=NN2c2ccc(Cl)cc2)cc1 (stereo not given) and write its reported GI50. 1.12 µM

Read the entry `CC(=O)Nc1ccc(/C=C/C(=O)c2ccccc2)cc1` and write its reported GI50. 17.9 µM

Read the entry `COc1cc(-n2cc(-c3ccc(F)cc3)nc2SCc2ccccc2)cc(OC)c1OC` and write its reported GI50. 1.48 µM

Read the entry `CN(c1cc2ncc(=O)[nH]c2cc1NC(N)=NCc1ccc(Cl)cc1)C1CCCCC1` and write its reported GI50. 0.793 µM

Read the entry `Nc1ccccc1-c1ccc([N+](=O)[O-])cc1` and write its reported GI50. 17.9 µM

###

# Tested on: SK-MEL-28 melanoma
# experiment: NCI tumour cell line growth inhibition, 48 h
I'd appreciate it if you could supply TGI values for the items below.

Determine reported TGI for `CC[O-].CC[O-].O=C([CH-]C(=O)c1cccnc1)c1ccccc1.O=C([CH-]C(=O)c1cccnc1)c1ccccc1.[Ti+4]` ; test system: SK-MEL-28 melanoma. > 100 µM

Determine reported TGI for CCOC(=O)N1C2C=C(C)C(ON2C(=O)c2ccccc2)C2C(C)C(=O)N21 (centres undefined) ; test system: SK-MEL-28 melanoma. > 100 µM

Determine reported TGI for CSc1nc(NC2OCC(OC(C)=O)C(OC(C)=O)C2OC(C)=O)c(N=C(C)C(C)=O)c(=O)[nH]1 (centres undefined) ; test system: SK-MEL-28 melanoma. > 100 µM

Determine reported TGI for `O=C(C=P(c1ccccc1)(c1ccccc1)c1ccccc1)c1cccc(-c2cccc([N+](=O)[O-])c2)c1` ; test system: SK-MEL-28 melanoma. 10.9 µM

Determine reported TGI for `CCCCCCCc1cc(OC(=O)c2c(C)cc(OC)cc2O)cc(O)c1C(=O)O` ; test system: SK-MEL-28 melanoma. 38.7 µM

Determine reported TGI for CC(=O)CCc1ccc(OC2OC(COC(=O)c3cc(O)c(O)c(O)c3)C(O)C(O)C2OC(=O)/C=C/c2ccccc2)cc1 (centres undefined) ; test system: SK-MEL-28 melanoma. 39.9 µM

Determine reported TGI for `O=C(O)c1cc(=O)[nH]c(SCc2ccccc2)n1` ; test system: SK-MEL-28 melanoma. > 100 µM

Determine reported TGI for `CC(C)[C@H]1CC[C@H]2[C@@H](CC[C@H]3[C@](C)(CN)CCC[C@]23C)C1` ; test system: SK-MEL-28 melanoma. 30.8 µM

Determine reported TGI for N#CC(c1ccnc(Cl)n1)c1nc2ccccc2s1 (centres undefined) ; test system: SK-MEL-28 melanoma. > 100 µM
